- EXPERIMENTAL PROTOCOL: chemical genetic growth profiling, strain panel (AID 1159580);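 also: tested at 20 µM; growth read once vehicle control cultures reached saturation at 30 °C; 1 = growth at the plate median or of vehicle wells; lower values mean less growth of the strain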
- EXPERIMENTAL PARAMETERS: S. cerevisiae deletion strains, growth OD, locus YNL128W, strain TEP1
Screen size: about 5,500 compounds; about 2,000 (36%) were called active. Not shown: some 18% with an inconclusive outcome. Rule as the data show it: active = normalized growth mostly below about 0.91 (no sharp cut-off); inconclusive = no clear call, values can overlap the other calls; inactive = mostly above about 0.92. Some of the results follow.
Classes used: true for active, false for inactive

1) O=C1NC(=O)C(=O)C(=O)N1 ... false
2) NC(N)=NS(=O)(=O)c1ccc(N)cc1 ... false
3) C=C1CCC2C(CC2(C)C)C(=C)CC/C1=N\O (centres undefined) ... false
4) Oc1ccc(Cl)cc1 ... false
5) NC[C@@H]1CC[C@@H](N)[C@@H](O[C@H]2[C@H](O)[C@@H](O[C@H]3O[C@H](CO)[C@@H](O)[C@H](N)[C@H]3O)[C@H](N)C[C@@H]2N)O1 ... false
6) Oc1ccc(Cl)cc1Cc1cc(Cl)ccc1O ... true
7) NC(N)=NCCC[C@H](N)C(=O)O ... false
8) CC[C@H](C)C(=O)O[C@H]1C[C@@H](C)C=C2C=C[C@H](C)[C@H](CC[C@@H]3C[C@@H](O)CC(=O)O3)[C@H]21 ... false
9) CCN1C[C@]2(C)CC[C@H](O)[C@@]34C5C[C@@H]6[C@@H](OC)C[C@@](O)(C5[C@H]6O)[C@@H](CC23)C14 (some centres undefined) ... false
10) CC(C)n1cc(C#N)c(=O)n(Cc2ccccc2)c1=O ... false
11) Cc1cccc(C)c1NC1=NCCCS1 ... false
12) CCCCOC(=O)c1ccc(N)cc1 ... false
13) CC1(C)C2CC(=O)[C@]3(C)C(CC[C@@]4(C)[C@H](c5ccoc5)OC(=O)[C@H]5O[C@]543)[C@@]2(C)C=C[C@@H]1O (some centres undefined) ... false
14) CCCN1CCC[C@@H](c2cccc(O)c2)C1 ... false
15) CCCNC1CCc2nc(N)sc2C1 (centres undefined) ... false
16) CCOC(=O)Cn1c(=O)c(C#N)cn(C(C)C)c1=O ... false
17) C=C1C(=O)OC2CC1C(OC(C)=O)C/C(C)=C/CC/C(C)=C/CC[C@]2(C)O (some centres undefined) ... false
18) CCCCN1CCCCC1C(=O)Nc1c(C)cccc1C (centres undefined) ... false
19) Clc1cccc(NC2=NCCS2)c1Cl ... false
20) O=C(O)CN(CC(=O)O)Cc1cc2c(-c3ccccc3C(=O)O)c3cc(CN(CC(=O)O)CC(=O)O)c(=O)cc-3oc2cc1O ... false
21) CC(C)(C)CC(C)(C)c1ccc(O)c(Cc2ccc(Cl)cc2Cl)c1 ... false
22) CC(C)NNC(=O)c1ccncc1 ... false
23) OCc1ccccc1O ... false
24) N[C@H](CO)C(=O)O ... false

---

Collected normalized growth values appear next to each entry.
- EXPERIMENTAL PROTOCOL: chemical genetic growth profiling, strain panel (AID 1159580);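 also: tested at 20 µM; growth read once vehicle control cultures reached saturation at 30 °C; 1 = growth at the plate median or of vehicle wells; lower values mean less growth of the strain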
- EXPERIMENTAL PARAMETERS: S. cerevisiae deletion strains, growth OD, locus YJL187C, strain SWE1 (second series), stronger effect = lower value
In all, about 5,500 compounds went through this assay and about 2,000 (36%) were called active. Inconclusive results (about 18%) are left out. The list shows a part of the results.
EXPERIMENTAL ENDPOINT: normalized growth

1. CC[N+](CC)(CC)CCOc1cccc(OCC[N+](CC)(CC)CC)c1OCC[N+](CC)(CC)CC ... 1.01
2. CO/N=C(\C(=O)N[C@@H]1C(=O)N2C(C(=O)O)=C(CSc3nc(=O)c(O)nn3C)CS[C@H]12)c1csc(N)n1 ... 1.01
3. CC(C)C(C)/C=C/C(C)[C@H]1CCC2C3=CCC4CC(=O)CC[C@]4(C)C3CC[C@@]21C (stereo not given in full) ... 1.01
4. CC(C)NC[C@H](O)COc1cccc2ccccc12 ... 1.01
5. CC(C)C(C)/C=C/C(C)C1CCC2C3=CC=C4CC(O)CCC4(C)C3CCC21C (stereo not given) ... 0.936

From: PubChem BioAssay AID1159580
